tested on: Staphylococcus epidermidis ATCC 12228; assay: minimal inhibitory concentration, two-fold agar dilution; format: cell-based; conditions: ATCC12228, Muller-Hinton agar, 37°C, 20 hours, read-out: MIC values against the standard strains
Please provide measured MIC for the entries that follow.
Give bare numbers, in mg/L.

Consider the worked cases shown below.
C[n+]1ccc(N)nc1SCC1=C(C(=O)[O-])N2C(=O)[C@@H](NC(=O)/C(=N\OC(C)(C)C(=O)O)c3csc(N)n3)[C@H]2SC1 | 2
CCO/N=C(\C(=O)N[C@@H]1C(=O)N2C(C(=O)[O-])=C(CSc3nc(N)cc[n+]3C)CS[C@H]12)c1nsc(N)n1 | 0.13
C[n+]1c(SCC2=C(C(=O)[O-])N3C(=O)[C@@H](NC(=O)/C(=N\OC(C)(C)C(=O)O)c4csc(N)n4)[C@H]3SC2)nc(N)c(N)c1N | 2
CO/N=C(\C(=O)N[C@@H]1C(=O)N2C(C(=O)[O-])=C(CSc3nc(N)cc[n+]3C)CS[C@H]12)c1csc(N)n1 | 0.13
C[C@@H](O/N=C(\C(=O)N[C@@H]1C(=O)N2C(C(=O)[O-])=C(CSc3nc(N)c(N)c(N)[n+]3C)CS[C@H]12)c1csc(N)n1)C(=O)O | 2
CCO/N=C(\C(=O)N[C@@H]1C(=O)N2C(C(=O)[O-])=C(CSc3nc(N)c(C(=O)O)c[n+]3C)CS[C@H]12)c1csc(N)n1 | 0.5
CC(C)(O/N=C(\C(=O)N[C@@H]1C(=O)N2C(C(=O)[O-])=C(CSc3nc(N)cc[n+]3N)CS[C@H]12)c1csc(N)n1)C(=O)O | 2
CN(C)c1cc(N)nc(SCC2=C(C(=O)[O-])N3C(=O)[C@@H](NC(=O)/C(=N\OC(C)(C)C(=O)O)c4csc(N)n4)[C@H]3SC2)[n+]1C | 2

Report MIC for every entry below.
1. COc1cc(N)nc(SCC2=C(C(=O)[O-])N3C(=O)[C@@H](NC(=O)/C(=N\OC(C)(C)C(=O)O)c4csc(N)n4)[C@H]3SC2)[n+]1C
2. CCO/N=C(\C(=O)N[C@@H]1C(=O)N2C(C(=O)[O-])=C(CSc3nc(N)cc[n+]3N)CS[C@H]12)c1csc(N)n1
3. CCO/N=C(\C(=O)N[C@@H]1C(=O)N2C(C(=O)[O-])=C(CSc3nc(N)cc(NC)[n+]3C)CS[C@H]12)c1csc(N)n1
4. C[n+]1ccc(N)nc1SCC1=C(C(=O)[O-])N2C(=O)[C@@H](NC(=O)/C(=N\O)c3csc(N)n3)[C@H]2SC1
5. C[n+]1cc(-c2ccccc2)c(N)nc1SCC1=C(C(=O)[O-])N2C(=O)[C@@H](NC(=O)/C(=N\OC(C)(C)C(=O)O)c3csc(N)n3)[C@H]2SC1
6. CC(C)(O/N=C(\C(=O)N[C@@H]1C(=O)N2C(C(=O)[O-])=C(C[n+]3ccccc3)CS[C@H]12)c1csc(N)n1)C(=O)O [Ceftazidime, reference compound]
7. CCO/N=C(\C(=O)N[C@@H]1C(=O)N2C(C(=O)[O-])=C(CSc3nc(N)c(N)c(N)[n+]3C)CS[C@H]12)c1nsc(N)n1

Found:
1. 1
2. 0.031
3. 0.031
4. 0.063
5. 2
6. 4
7. 0.25

Report MIC for every entry below.
1. CCO/N=C(\C(=O)N[C@@H]1C(=O)N2C(C(=O)[O-])=C(CSc3nc(N)c4cccnc4[n+]3C)CS[C@H]12)c1csc(N)n1
2. C[n+]1c(-c2ccccc2)cc(N)nc1SCC1=C(C(=O)[O-])N2C(=O)[C@@H](NC(=O)/C(=N\OC(C)(C)C(=O)O)c3csc(N)n3)[C@H]2SC1
3. CC[n+]1ccc(N)nc1SCC1=C(C(=O)[O-])N2C(=O)[C@@H](NC(=O)/C(=N\OC(C)(C)C(=O)O)c3csc(N)n3)[C@H]2SC1
4. CC[n+]1c(SCC2=C(C(=O)[O-])N3C(=O)[C@@H](NC(=O)/C(=N\OC(C)(C)C(=O)O)c4csc(N)n4)[C@H]3SC2)nc(N)c(N)c1N
5. CCO/N=C(\C(=O)N[C@@H]1C(=O)N2C(C(=O)[O-])=C(CSc3nc(N)c(N)c(N)[n+]3C)CS[C@H]12)c1csc(N)n1
6. CCO/N=C(\C(=O)N[C@@H]1C(=O)N2C(C(=O)[O-])=C(CSc3nc(N)cc[n+]3CC)CS[C@H]12)c1nsc(N)n1
7. CCO/N=C(\C(=O)N[C@@H]1C(=O)N2C(C(=O)[O-])=C(CSc3nc(N)c4ccccc4[n+]3C)CS[C@H]12)c1csc(N)n1
8. CCO/N=C(\C(=O)N[C@@H]1C(=O)N2C(C(=O)[O-])=C(CSc3nc(N)cc(OC)[n+]3C)CS[C@H]12)c1csc(N)n1

Found:
1. 0.063
2. 1
3. 2
4. 2
5. 0.13
6. 0.5
7. 0.031
8. 0.13

Lookup: Look up MIC for this molecule: CCO/N=C(\C(=O)N[C@@H]1C(=O)N2C(C(=O)[O-])=C(CSc3nc(N)cc[n+]3CC)CS[C@H]12)c1csc(N)n1
Found: 0.25
